This document collects pIC50 values reported for Human eIF4E (Homo sapiens (Human), UniProt P06730).
Friendly reminder that pIC50 comes from taking -log10 of the concentration in mol/L.

Ask | Data request, read-out pIC50, for O=C(O)c1cc(-c2nc(-c3ccc(Cl)c(Cl)c3)cs2)ccc1-c1ccc(Cl)cc1Cl [Example 150]
Reply | 5.85

Ask | Return reported pIC50; argument: N#Cc1ccc(-c2ccc(-c3nc(-c4ccc(Cl)c(Cl)c4)cs3)cc2C(=O)O)cc1 [Example 106]
Reply | 5.12

Ask | pIC50 for O=C(O)c1cc(-c2nc(-c3cccc(C(F)(F)F)c3)cs2)ccc1-c1ccccc1[N+](=O)[O-] [Example 6] ?
Reply | 5.08

Ask | Give its pIC50 value. Item: N#Cc1ccc(Cl)cc1-c1ccc(-c2nc(-c3ccc(Cl)c(Cl)c3)cs2)cc1C(=O)O [Example 110]
Reply | 5.77

Ask | // query pIC50 value for entry Cc1cc(C(N)=O)ccc1-c1ccc(-c2nc(-c3ccc(Cl)c(Cl)c3)cs2)cc1C(=O)O [Example 78]
Reply | 5.72

Ask | Would you mind telling me what pIC50 value was observed for O=Cc1ccccc1-c1ccc(-c2nc(-c3ccc(Cl)c(Cl)c3)cs2)cc1C(=O)O [Example 123] ?
Reply | 5.26

Ask | GET /values?readout=pIC50&item= O=C(O)c1cc(-c2nc(-c3ccc(Cl)c(Cl)c3)cs2)ccc1-c1cc(F)ccc1F [Example 131]
Reply | 5.74
